# assayMethodText: Population pharmacokinetics of oral AS and its metabolite DHA in pregnant and non-pregnant women (NONMEM parent-metabolite model)
# Format: in vivo, human
# setupConditions: female, human, plasma, po, 200 mg, after 200 mg oral AS, pregnant; read-out: DHA elimination half-life, pregnant subjects
parameterMeasured: half-life (min)
State just the number; it will be interpreted in min.

-- ask Given the compound C[C@H]1[C@@H](O)O[C@@H]2O[C@@]3(C)CC[C@H]4[C@H](C)CC[C@@H]1[C@@]24OO3 [DHA, dihydroartemisinin] , what is its reported half-life?
-- reply 45

---

# assayMethodText: Population pharmacokinetics of oral AS and its metabolite DHA in pregnant and non-pregnant women (NONMEM parent-metabolite model)
# Format: in vivo, human
# setupConditions: female, human, plasma, po, 200 mg, after 200 mg oral AS, final model NONMEM estimate; read-out: V3/F: apparent volume of distribution of DHA, estimate
parameterMeasured: Vd/F (L)
Form entry: value (L) — number only.

-- ask Vd/F for C[C@H]1[C@@H](O)O[C@@H]2O[C@@]3(C)CC[C@H]4[C@H](C)CC[C@@H]1[C@@]24OO3 [DHA, dihydroartemisinin] ?
-- reply 91.4

---

# assayMethodText: Population pharmacokinetics of oral AS and its metabolite DHA in pregnant and non-pregnant women (NONMEM parent-metabolite model)
# Format: in vivo, human
# setupConditions: female, human, plasma, po, 200 mg, after 200 mg oral AS, 1000 bootstrap runs; read-out: V3/F apparent volume of distribution of DHA, bootstrap mean (95% CI)
parameterMeasured: Vd/F (L)
Give a bare numeral; the unit L is implied.

-- ask Could you tell me which Vd/F is on file for C[C@H]1[C@@H](O)O[C@@H]2O[C@@]3(C)CC[C@H]4[C@H](C)CC[C@@H]1[C@@]24OO3 [DHA, dihydroartemisinin] ?
-- reply 92.1
